- experiment: PK of five RC components in sham operation administration (SDG, normal) rats after oral RC extract, HPLC-QQQ-MS/MS, DAS
- Format: in vivo, SD rats
- test-context: SD, rat, in vivo, po, 2 g/kg
readout-type: Tmax (min)
Numbers only, in min.

query: Please give measured Tmax of the following entry: O=C(O)c1cc(O)c(O)c(O)c1 [Gallic Acid, gallic acid]
result: 55.2

====

- experiment: PK of five RC components in sham operation administration (SDG, normal) rats after oral RC extract, HPLC-QQQ-MS/MS, DAS
- Type: in vivo, SD rats
- test-context: rat; SDG rats, oral RC extract 2 g/kg, plasma, mean ± SD, n = 6; read-out: t1/2z (converted)
readout-type: half-life (h)
Numbers only, in h.

Would you mind listing half-life for each of the following molecules?
1. OCCc1ccc(O)cc1
2. OC[C@H]1O[C@@H](OCCc2ccc(O)cc2)[C@H](O)[C@@H](O)[C@@H]1O [Salidroside, salidroside]

result:
1. 10
2. 19.9

====

- experiment: PK of five RC components in pituitrin-induced myocardial ischemia (MDG) rats after oral RC extract, HPLC-QQQ-MS/MS, DAS
- Type: in vivo, SD rats
- test-context: rat; MDG (myocardial ischemia) rats, oral RC extract 2 g/kg, plasma, mean ± SD, n = 6; read-out: AUC(0−t)
- Procedure: The drug concentration in plasma was calculated using the standard curve, and the mean blood concentration was plotted against the time to obtain the mean blood concentration–time curve (Figure 4). The rat model of MI was made with Pit. The rats were divided into a sham operation group (SG), sham operation administration group (SDG), model group (MG), and model administration group (MDG) (n = 6 for each group). […]
Can you tell me AUC(0-t) for the items I'm about to list?
Please answer using the number first and the unit second.

query: Answer with reported AUC(0-t) of OC[C@H]1O[C@@H](OCCc2ccc(O)cc2)[C@H](O)[C@@H](O)[C@@H]1O [Salidroside, salidroside]
result: 7790 ng·h/mL

Now for another entry.
query: Look up and state reported AUC(0-t) for OCCc1ccc(O)cc1
result: 837 ng·h/mL

====

- experiment: PK of five RC components in pituitrin-induced myocardial ischemia (MDG) rats after oral RC extract, HPLC-QQQ-MS/MS, DAS
- Assay type: in vivo, SD rats
- test-context: rat, in vivo; MDG (myocardial ischemia) rats, oral RC extract 2 g/kg, plasma, mean ± SD, n = 6; read-out: AUC(0−∞)
readout-type: AUC(0-inf) (ng·h/mL)
Numbers only, in ng·h/mL.

query: Given O=c1c(O)c(-c2ccc(O)cc2)oc2cc(O)cc(O)c12 , respond with its AUC(0-inf).
result: 645

====

Provide the reported MRT inf of each item.
- experiment: PK of five RC components in pituitrin-induced myocardial ischemia (MDG) rats after oral RC extract, HPLC-QQQ-MS/MS, DAS
- Type: in vivo, SD rats
- test-context: rat; MDG (myocardial ischemia) rats, oral RC extract 2 g/kg, plasma, mean ± SD, n = 6; read-out: MRT(0−∞)
# output: number + unit

query: Tell us which MRT inf value is on record for OCCc1ccc(O)cc1
result: 16.8 h

--- query ---
query: Give reported MRT inf value for OC[C@H]1O[C@@H](OCCc2ccc(O)cc2)[C@H](O)[C@@H](O)[C@@H]1O [Salidroside, salidroside]
result: 16.7 h

====

- experiment: PK of five RC components in sham operation administration (SDG, normal) rats after oral RC extract, HPLC-QQQ-MS/MS, DAS
- Assay type: in vivo, SD rats
- test-context: SD, rat, in vivo, po, 2 g/kg
readout-type: MRT inf (h)
Give bare numbers, in h.

query: Fill in MRT inf for record O=C(O)c1cc(O)c(O)c(O)c1 [Gallic Acid, gallic acid]
result: 8.92

====

Please respond with reported MRT for every item in the list.
- experiment: PK of five RC components in sham operation administration (SDG, normal) rats after oral RC extract, HPLC-QQQ-MS/MS, DAS
- Type: in vivo, SD rats
- test-context: rat; SDG rats, oral RC extract 2 g/kg, plasma, mean ± SD, n = 6; read-out: MRT(0−)
Answers are plain numbers, in h.

query: Please report MRT for the following compound: OC[C@H]1O[C@@H](OCCc2ccc(O)cc2)[C@H](O)[C@@H](O)[C@@H]1O [Salidroside, salidroside]
result: 7.14

Shifting focus to the compound that follows.
query: Assign MRT to the following record: OCCc1ccc(O)cc1
result: 5.59

====

- experiment: PK of five RC components in sham operation administration (SDG, normal) rats after oral RC extract, HPLC-QQQ-MS/MS, DAS
- Format: in vivo, SD rats
- test-context: rat; SDG rats, oral RC extract 2 g/kg, plasma, mean ± SD, n = 6; read-out: CLz/F (converted)
readout-type: CL/F (mL/min/kg)
Give bare numbers, in mL/min/kg.

query: Retrieve CL/F measured for OCCc1ccc(O)cc1 and print it.
result: 115

Note: attention shifts to another entry.
query: Return CL/F for the following molecule: OC[C@H]1O[C@@H](OCCc2ccc(O)cc2)[C@H](O)[C@@H](O)[C@@H]1O [Salidroside, salidroside]
result: 10.7

====

Would you kindly list MRT for each of these molecules?
- experiment: PK of five RC components in pituitrin-induced myocardial ischemia (MDG) rats after oral RC extract, HPLC-QQQ-MS/MS, DAS
- Assay type: in vivo, SD rats
- test-context: rat; MDG (myocardial ischemia) rats, oral RC extract 2 g/kg, plasma, mean ± SD, n = 6; read-out: MRT(0−)

query: Return value of MRT for input OC[C@H]1O[C@@H](OCCc2ccc(O)cc2)[C@H](O)[C@@H](O)[C@@H]1O [Salidroside, salidroside] , no commentary.
result: 6.7 h

Switching to the query record.
query: Give MRT for the following molecule: OCCc1ccc(O)cc1 [Tyrosol, tyrosol]
result: 6.54 h

====

- experiment: PK of five RC components in sham operation administration (SDG, normal) rats after oral RC extract, HPLC-QQQ-MS/MS, DAS
- Assay type: in vivo, SD rats
- test-context: SD, rat, in vivo, po, 2 g/kg
readout-type: AUC(0-t) (ng·h/mL)
Answers are plain numbers, in ng·h/mL.

query: Give the value of AUC(0-t) reported for the following: O=C(O)c1cc(O)c(O)c(O)c1
result: 475

====

- experiment: PK of five RC components in pituitrin-induced myocardial ischemia (MDG) rats after oral RC extract, HPLC-QQQ-MS/MS, DAS
- Type: in vivo, SD rats
- test-context: SD, rat, in vivo, po, 2 g/kg
readout-type: AUC(0-inf) (ng·h/mL)
Answers are plain numbers, in ng·h/mL.

query: Write down AUC(0-inf) measured for item O=C(O)c1cc(O)c(O)c(O)c1
result: 664

====

- experiment: PK of five RC components in sham operation administration (SDG, normal) rats after oral RC extract, HPLC-QQQ-MS/MS, DAS
- Assay type: in vivo, SD rats
- test-context: rat, in vivo; SDG rats, oral RC extract 2 g/kg, plasma, mean ± SD, n = 6; read-out: AUC(0−∞)
readout-type: AUC(0-inf) (ng·h/mL)
One number for each entry, in ng·h/mL.

query: Provide AUC(0-inf) value for the following compound: O=c1c(O)c(-c2ccc(O)cc2)oc2cc(O)cc(O)c12
result: 427

====

- Test system: SOD
- experiment: PK-PD sigmoid-Emax model, PD index SOD in MDG rats
- Format: in vivo, SD rats
- Set-up: unit not given beside the values
readout-type: Ke0
One number for each entry.

In the examples that follow, each entry is paired with its recorded Ke0.
query: Quickly give me recorded Ke0 for O=C(O)c1cc(O)c(O)c(O)c1 [Gallic Acid, gallic acid]
result: 0.022

query: Consider the molecule OC[C@H]1O[C@@H](OCCc2ccc(O)cc2)[C@H](O)[C@@H](O)[C@@H]1O [Salidroside, salidroside] and give its recorded Ke0.
result: 0.025

query: Determine from records and report Ke0 for O=c1c(O)c(-c2ccc(O)cc2)oc2cc(O)cc(O)c12 [Kaempferol, kaempferol]
result: 0.115

Next up:
query: State, in one line, measured Ke0 of OCCc1ccc(O)cc1 [Tyrosol, tyrosol]
result: 0.043
